# target-system: Type-1 angiotensin II receptor (Homo sapiens, UniProt P30556); note: assay procedure not described here
# Sequence (P30556 whole entry): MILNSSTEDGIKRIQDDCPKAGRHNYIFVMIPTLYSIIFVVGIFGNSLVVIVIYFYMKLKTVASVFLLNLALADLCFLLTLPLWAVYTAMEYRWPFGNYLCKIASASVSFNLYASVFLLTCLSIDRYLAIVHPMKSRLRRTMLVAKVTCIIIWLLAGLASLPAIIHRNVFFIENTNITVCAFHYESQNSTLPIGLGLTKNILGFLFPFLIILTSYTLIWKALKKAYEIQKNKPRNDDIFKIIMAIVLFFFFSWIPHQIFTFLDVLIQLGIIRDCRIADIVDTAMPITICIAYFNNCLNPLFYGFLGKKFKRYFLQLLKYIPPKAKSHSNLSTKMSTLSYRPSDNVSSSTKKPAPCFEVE
measured-property: AC50

Example entries begin here.
compound | measured-property | experimental-value
CCOC(=O)[C@H](CCc1ccccc1)N[C@@H](C)C(=O)N1[C@H](C(=O)O)C[C@@H]2CCC[C@@H]21 | AC50 | > 30 µM
CCCC(=O)O[C@]1(C(=O)CO)CC[C@H]2[C@@H]3CCC4=CC(=O)CC[C@]4(C)[C@H]3[C@@H](O)C[C@@]21C [HYDROCORTISONE BUTYRATE] | AC50 | > 10 µM
CO[C@@H]1[C@@H](O[C@@H]2O[C@H](C)[C@@H](O[C@H]3C[C@@](C)(O)[C@@H](OC(=O)CC(C)C)[C@H](C)O3)[C@H](N(C)C)[C@H]2O)[C@@H](CC=O)C[C@@H](C)[C@@H](O)/C=C/C=C/C[C@@H](C)OC(=O)C[C@H]1OC(C)=O | AC50 | > 10 µM
COc1ccc2c3c1O[C@H]1C(=O)CC[C@@]4(O)[C@@H](C2)N(C)CC[C@]314 | AC50 | > 30 µM
Cc1cccc(Nc2ccccc2C(=O)O)c1C | AC50 | > 10 µM

## Input # lookup: AC50 of "CN1C(=O)OC(C)(C)C1=O"
## Output > 10 µM

## Input # lookup: AC50 of "O=C(O)C[C@H](O)C[C@H](O)/C=C/c1c(C2CC2)nc2ccccc2c1-c1ccc(F)cc1"
## Output > 30 µM

## Input # lookup: AC50 of "CCc1c(Cl)c(O)c(Cl)c(O)c1C(=O)O[C@H]1[C@H](O)[C@H](OC)[C@H](OC/C2=C\C=C\C[C@H](O)/C(C)=C/[C@H](CC)[C@@H](O[C@@H]3OC(C)(C)[C@@H](OC(=O)C(C)C)[C@H](O)[C@@H]3O)/C(C)=C/C(C)=C/C[C@@H]([C@@H](C)O)OC2=O)O[C@@H]1C"
## Output > 30 µM

## Input # lookup: AC50 of "Nc1nc(/C(=C/CC(=O)O)C(=O)N[C@@H]2C(=O)N3C(C(=O)O)=CCS[C@H]23)cs1"
## Output > 30 µM

## Input # lookup: AC50 of COC(=O)C1=C(C)NC(C)=C(C(=O)OC2CCCN(Cc3ccccc3)C2)C1c1cccc([N+](=O)[O-])c1 (stereo unspecified)
## Output > 30 µM

## Input # lookup: AC50 of CN1C(=O)C(O)N=C(c2ccccc2)c2cc(Cl)ccc21 (stereo unspecified)
## Output > 30 µM

Values compiled from ChEMBL document CHEMBL5291721.
